# EXPERIMENTAL SYSTEM: UniProtKB P01112
# Sequence (P01112 whole entry, looked up): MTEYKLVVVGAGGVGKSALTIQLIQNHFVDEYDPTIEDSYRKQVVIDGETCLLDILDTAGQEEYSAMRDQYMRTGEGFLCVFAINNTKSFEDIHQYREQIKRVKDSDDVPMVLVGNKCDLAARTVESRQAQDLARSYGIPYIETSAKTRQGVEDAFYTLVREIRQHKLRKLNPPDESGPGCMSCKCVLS
# EXPERIMENTAL PROTOCOL: activated Ras mutant GTP-binding inhibitors, SAR follow-up, biochemical, pyrazoline analogs, multiplex bead flow cytometry (AID 2050)
# PROTOCOL CONDITIONS: GST-Ras beads, Bodipy-FL-GTP binding
Activity calls are given as the source filed them.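 Rule for the calls: active = EC50 at or below 30 µM together with a response span of at least a set limit; inactive = the rest.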
RESULT TYPE: EC50

What EC50 appears in the records for this compound with UniProtKB P01112? COc1ccc(C2CC(c3ccccc3F)=NN2c2ccc(S(N)(=O)=O)cc2)cc1 (stereo unspecified)
> 30 µM (inactive)

What EC50 appears in the records for this compound with UniProtKB P01112? COc1ccc(C2CC(c3cccc(F)c3)=NN2c2ccc(S(N)(=O)=O)cc2)cc1 (stereo unspecified)
> 30 µM (inactive)

What EC50 appears in the records for this compound with UniProtKB P01112? COc1ccc(C2CC(c3cccc(N(C)C)c3)=NN2c2ccc(S(N)(=O)=O)cc2)cc1 (stereo unspecified)
> 30 µM (inactive)

What EC50 appears in the records for this compound with UniProtKB P01112? COc1ccc(C2CC(c3cccnc3)=NN2c2ccc(S(N)(=O)=O)cc2)cc1 (stereo unspecified)
> 30 µM (inactive)

What EC50 appears in the records for this compound with UniProtKB P01112? Cc1ccccc1N1N=C(c2ccccc2)CC1c1cccc([N+](=O)[O-])c1 (stereo unspecified)
> 30 µM (inactive)

What EC50 appears in the records for this compound with UniProtKB P01112? O=C(O)c1ccc(N2N=C(c3ccccc3)CC2c2ccccc2)cc1 (stereo unspecified)
> 30 µM (inactive)

What EC50 appears in the records for this compound with UniProtKB P01112? COc1ccc(C2CC(c3ccccc3C)=NN2c2ccc(S(N)(=O)=O)cc2)cc1 (stereo unspecified)
> 30 µM (inactive)

What EC50 appears in the records for this compound with UniProtKB P01112? NS(=O)(=O)c1ccc(N2N=C(c3ccccc3)CC2c2ccccc2Cl)cc1 (stereo unspecified)
> 30 µM (inactive)

What EC50 appears in the records for this compound with UniProtKB P01112? COc1ccc(C2CC(c3ccc(Br)cc3)=NN2c2ccc(S(N)(=O)=O)cc2)cc1 (stereo unspecified)
> 30 µM (inactive)

What EC50 appears in the records for this compound with UniProtKB P01112? COc1ccccc1N1N=C(c2ccccc2)CC1c1ccccc1 (stereo unspecified)
> 30 µM (inactive)

What EC50 appears in the records for this compound with UniProtKB P01112? COc1ccc(C2CC(C3CCCCC3)=NN2c2ccc(S(N)(=O)=O)cc2)cc1 (stereo unspecified)
> 30 µM (inactive)

What EC50 appears in the records for this compound with UniProtKB P01112? COc1ccc(C2CC(c3ccc(Cl)cc3)=NN2c2ccccc2)cc1OC (stereo unspecified)
> 30 µM (inactive)

What EC50 appears in the records for this compound with UniProtKB P01112? NS(=O)(=O)c1ccc(N2N=C(c3ccccc3)CC2c2ccc(Br)cc2)cc1 (stereo unspecified)
> 30 µM (inactive)

What EC50 appears in the records for this compound with UniProtKB P01112? COc1ccc(C2CC(c3cccc(OC)c3)=NN2c2ccc(S(N)(=O)=O)cc2)cc1 (stereo unspecified)
> 30 µM (inactive)

What EC50 appears in the records for this compound with UniProtKB P01112? COc1cccc(C2CC(c3ccccc3)=NN2c2ccc(S(N)(=O)=O)cc2)c1 (stereo unspecified)
> 30 µM (inactive)

What EC50 appears in the records for this compound with UniProtKB P01112? COc1ccc(C2=NN(c3ccc(Cl)c(Cl)c3)C(c3ccc(OC)cc3)C2)cc1 (stereo unspecified)
> 30 µM (inactive)

What EC50 appears in the records for this compound with UniProtKB P01112? NS(=O)(=O)c1ccc(N2N=C(c3ccccc3)CC2c2cccc(Br)c2)cc1 (stereo unspecified)
> 30 µM (inactive)

What EC50 appears in the records for this compound with UniProtKB P01112? COc1ccc(C2=NN(c3cccc(F)c3)C(c3ccc(Cl)cc3)C2)cc1 (stereo unspecified)
> 30 µM (inactive)

What EC50 appears in the records for this compound with UniProtKB P01112? Fc1ccccc1C1CC(c2ccc(Br)cc2)=NN1c1ccc(Br)cc1 (stereo unspecified)
> 30 µM (inactive)

What EC50 appears in the records for this compound with UniProtKB P01112? COc1ccc(C2=NN(c3ccccc3)C(c3ccc(OC)c(OC)c3C(=O)O)C2)cc1 (stereo unspecified)
> 30 µM (inactive)

###

# EXPERIMENTAL SYSTEM: UniProt:P01112
# EXPERIMENTAL PROTOCOL: activated Ras mutant GTP-binding inhibitors, SAR follow-up, biochemical, pyrazoline analogs, multiplex bead flow cytometry (AID 2050)
# PROTOCOL CONDITIONS: GST-Ras beads, Bodipy-FL-GTP binding
Active and inactive are the calls of the source.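 The calls were made as follows: active = EC50 at or below 30 µM together with a response span of at least a set limit; inactive = the rest.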
Exercise: for every item that follows, state its recorded EC50.

Name the recorded EC50 for COc1ccc(C2=NN(c3cccc(F)c3)C(c3ccc(OC)cc3)C2)cc1 (stereo unspecified) .
> 30 µM (inactive)

Name the recorded EC50 for Clc1ccc(N2N=C(c3ccccc3)CC2c2ccccc2)cc1 (stereo unspecified) .
> 30 µM (inactive)

Name the recorded EC50 for CN(C)c1ccc(C2CC(c3ccccc3)=NN2c2ccccc2)cc1 (stereo unspecified) .
> 30 µM (inactive)

Name the recorded EC50 for O=[N+]([O-])c1ccc(N2N=C(c3ccccc3)CC2c2ccc(O)cc2)cc1 (stereo unspecified) .
> 30 µM (inactive)

Name the recorded EC50 for COc1ccc(C2CC(c3ccccc3)=NN2c2cccc(S(N)(=O)=O)c2)cc1 (stereo unspecified) .
> 30 µM (inactive)

Name the recorded EC50 for COc1ccc(C2CC(C)=NN2c2ccc(S(N)(=O)=O)cc2)cc1 (stereo unspecified) .
> 30 µM (inactive)

Where these numbers come from: PubChem BioAssay AID2050
